Where do these numbers come from? They come from patent US7569572B2.

Field: IC50. Provide a value for each of the compounds that follow.
# measured.target: human platelet PDE5 (Homo sapiens, UniProt O76074)
# Construct: utilizes PDE5 isolated from human platelets; from tissue; host or cells: human platelets
# test.method.notes: Method B: PDE-5 Inhibition Scintillation Proximity Assay (SPA) - Human Platelet (modified protocol of Method A)
# Format: biochemical
# assay.context: cGMP substrate 50 nM, PDE5 isolated from human platelets
Where a name gives a salt, the structure may show the parent alone.
Give bare numbers, in nM.

1) FC(F)(F)CNCc1nn(CCOCC(F)(F)F)c2c(Nc3ccncn3)nc(N3CCNCC3)nc12 [Example 50, trifluoroacetate]: 1.06
2) CCN(CC)Cc1nn(CCOCC(F)(F)F)c2c(Nc3ccncn3)nc(N(CC)CC)nc12 [Example 48, trifluoroacetate]: 7.39
3) C[C@@H]1CN(c2nc(Nc3ccncn3)c3c(n2)c(CN2CCCCC2)nn3CCOCC(F)(F)F)CCN1 [Example 45, trifluoroacetate]: 1.25

Kindly give each listed record's IC50.
1. C[C@@H]1CN(c2nc(Nc3ccncn3)c3c(n2)c(CN2CCOCC2)nn3CCOCC(F)(F)F)CCN1 [Example 42, trifluoroacetate]
2. C[C@@H]1CN(c2nc(Nc3ccncn3)c3c(n2)c(CN2CCN(C)CC2)nn3CCOCC(F)(F)F)CCN1 [Example 47, trifluoroacetate]
3. FC(F)(F)COCCn1nc(CN2CCNCC2)c2nc(N3CCNCC3)nc(Nc3ccncn3)c21 [Example 41, trifluoroacetate]

Result:
0.32
0.47
1.8
